- targetOfAssay: Glutamate receptor 1 (Rattus norvegicus, UniProt P19490)
- Sequence (P19490 whole entry, canonical isoform): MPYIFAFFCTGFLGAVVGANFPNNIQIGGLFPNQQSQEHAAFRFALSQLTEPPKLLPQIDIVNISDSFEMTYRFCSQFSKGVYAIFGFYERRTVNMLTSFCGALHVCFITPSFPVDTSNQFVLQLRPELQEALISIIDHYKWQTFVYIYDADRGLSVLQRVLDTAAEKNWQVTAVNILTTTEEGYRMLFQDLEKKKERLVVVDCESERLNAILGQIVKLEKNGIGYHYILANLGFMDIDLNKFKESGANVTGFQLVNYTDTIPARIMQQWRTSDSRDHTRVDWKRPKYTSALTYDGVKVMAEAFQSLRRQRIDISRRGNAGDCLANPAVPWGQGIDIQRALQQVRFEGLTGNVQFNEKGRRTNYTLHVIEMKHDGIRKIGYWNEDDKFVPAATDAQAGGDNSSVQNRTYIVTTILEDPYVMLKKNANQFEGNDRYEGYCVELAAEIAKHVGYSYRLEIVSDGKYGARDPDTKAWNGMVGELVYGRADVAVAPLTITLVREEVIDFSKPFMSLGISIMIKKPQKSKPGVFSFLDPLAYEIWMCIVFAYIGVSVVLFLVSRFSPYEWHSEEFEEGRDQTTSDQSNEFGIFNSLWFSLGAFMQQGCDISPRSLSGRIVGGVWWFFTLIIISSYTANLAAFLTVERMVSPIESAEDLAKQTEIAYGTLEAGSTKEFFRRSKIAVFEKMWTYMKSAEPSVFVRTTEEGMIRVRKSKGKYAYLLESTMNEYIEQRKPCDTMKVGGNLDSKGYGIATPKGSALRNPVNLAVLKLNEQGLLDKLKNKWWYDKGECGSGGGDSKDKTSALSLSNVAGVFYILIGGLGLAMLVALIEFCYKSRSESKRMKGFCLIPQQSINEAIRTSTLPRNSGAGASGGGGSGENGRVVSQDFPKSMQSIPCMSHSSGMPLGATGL
- runDescription: Displacement of [3H]AMPA from recombinant rat GluA1 receptor flop isoform expressed in sf9 insect cells
Reported Ki by item:

- chemicalStructure: "CC(C)NCc1cccc(Cn2nnc(-c3onc(O)c3C[C@H](N)C(=O)O)n2)c1"
  readoutUnit: "µM"
  reportedRelation: "="
  Ki: 3.2
- chemicalStructure: "CCNCc1cccc(Cn2nnc(-c3onc(O)c3C[C@H](N)C(=O)O)n2)c1"
  readoutUnit: "µM"
  reportedRelation: "="
  Ki: 5.29
- chemicalStructure: "NCc1cccc(Cn2nnc(-c3onc(O)c3C[C@H](N)C(=O)O)n2)c1"
  readoutUnit: "µM"
  reportedRelation: "="
  Ki: 0.434
- chemicalStructure: "N[C@@H](Cc1c(O)noc1-c1nnn(Cc2ccncc2)n1)C(=O)O"
  readoutUnit: "µM"
  reportedRelation: ">"
  Ki: 100
- chemicalStructure: "CNCc1cccc(Cn2nnc(-c3onc(O)c3C[C@H](N)C(=O)O)n2)c1"
  readoutUnit: "µM"
  reportedRelation: "="
  Ki: 10.8

====

- runDescription: Displacement of [3H]AMPA from AMPA receptor in rat cortical brain tissue after 1 hr
pKi: −log10 of the molar value.
Reported values of pKi for individual entries
reportedEndpoint: pKi

- chemicalStructure: "CNCc1cccc(Cn2nnc(-c3onc(O)c3C[C@H](N)C(=O)O)n2)c1"
  reportedEndpoint: "pKi"
  observedResult: "< 4.00"
- chemicalStructure: "N[C@@H](Cc1c(O)noc1-c1nnn(Cc2ccncc2)n1)C(=O)O"
  reportedEndpoint: "pKi"
  observedResult: "< 4.00"
- chemicalStructure: "NCc1cccc(Cn2nnnc2-c2onc(O)c2C[C@H](N)C(=O)O)c1"
  reportedEndpoint: "pKi"
  observedResult: "< 3.00"
- chemicalStructure: "CC(C)NCc1cccc(Cn2nnc(-c3onc(O)c3C[C@H](N)C(=O)O)n2)c1"
  reportedEndpoint: "pKi"
  observedResult: "< 4.00"
- chemicalStructure: "NCc1cccc(Cn2nnc(-c3onc(O)c3C[C@H](N)C(=O)O)n2)c1"
  reportedEndpoint: "pKi"
  observedResult: 4.64
- chemicalStructure: "CCNCc1cccc(Cn2nnc(-c3onc(O)c3C[C@H](N)C(=O)O)n2)c1"
  reportedEndpoint: "pKi"
  observedResult: "< 4.00"

====

- targetOfAssay: Glutamate receptor 2 (Rattus norvegicus, UniProt P19491)
- Sequence (P19491 whole entry, canonical isoform): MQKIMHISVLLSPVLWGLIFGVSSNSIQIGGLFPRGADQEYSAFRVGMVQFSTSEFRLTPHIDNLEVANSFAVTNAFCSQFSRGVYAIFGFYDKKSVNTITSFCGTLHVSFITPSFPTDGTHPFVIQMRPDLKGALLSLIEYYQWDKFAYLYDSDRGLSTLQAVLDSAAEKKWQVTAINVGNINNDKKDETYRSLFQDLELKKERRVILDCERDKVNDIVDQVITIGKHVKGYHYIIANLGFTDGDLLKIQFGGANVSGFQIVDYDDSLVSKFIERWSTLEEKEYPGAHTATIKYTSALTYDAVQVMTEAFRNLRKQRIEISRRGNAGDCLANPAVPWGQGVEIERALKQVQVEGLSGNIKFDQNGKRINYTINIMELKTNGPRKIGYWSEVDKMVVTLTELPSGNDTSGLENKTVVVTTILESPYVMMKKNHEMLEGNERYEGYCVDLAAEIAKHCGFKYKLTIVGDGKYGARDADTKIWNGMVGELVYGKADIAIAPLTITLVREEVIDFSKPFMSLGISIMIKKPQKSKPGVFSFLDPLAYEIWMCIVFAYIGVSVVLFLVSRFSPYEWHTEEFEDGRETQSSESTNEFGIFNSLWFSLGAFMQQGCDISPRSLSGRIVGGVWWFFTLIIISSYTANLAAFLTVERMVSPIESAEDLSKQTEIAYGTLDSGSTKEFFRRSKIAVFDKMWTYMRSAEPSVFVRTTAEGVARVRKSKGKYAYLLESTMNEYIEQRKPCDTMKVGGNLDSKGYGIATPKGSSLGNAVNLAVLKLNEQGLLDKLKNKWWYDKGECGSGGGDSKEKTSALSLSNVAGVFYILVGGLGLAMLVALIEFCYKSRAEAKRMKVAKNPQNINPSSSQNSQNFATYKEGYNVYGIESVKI
- runDescription: Agonist activity at recombinant rat GluA2(Q) receptor flip isoform expressed in Xenopus laevis oocytes by two-electrode voltage clamp assay
- Assay type: cell-based
reportedEndpoint: EC50

- chemicalStructure: "NCc1cccc(Cn2nnc(-c3onc(O)c3C[C@H](N)C(=O)O)n2)c1"
  reportedEndpoint: "EC50"
  observedResult: "432 µM"

====

- targetOfAssay: Glutamate receptor 4 (Rattus norvegicus)
- Sequence (P19493 whole entry, canonical isoform): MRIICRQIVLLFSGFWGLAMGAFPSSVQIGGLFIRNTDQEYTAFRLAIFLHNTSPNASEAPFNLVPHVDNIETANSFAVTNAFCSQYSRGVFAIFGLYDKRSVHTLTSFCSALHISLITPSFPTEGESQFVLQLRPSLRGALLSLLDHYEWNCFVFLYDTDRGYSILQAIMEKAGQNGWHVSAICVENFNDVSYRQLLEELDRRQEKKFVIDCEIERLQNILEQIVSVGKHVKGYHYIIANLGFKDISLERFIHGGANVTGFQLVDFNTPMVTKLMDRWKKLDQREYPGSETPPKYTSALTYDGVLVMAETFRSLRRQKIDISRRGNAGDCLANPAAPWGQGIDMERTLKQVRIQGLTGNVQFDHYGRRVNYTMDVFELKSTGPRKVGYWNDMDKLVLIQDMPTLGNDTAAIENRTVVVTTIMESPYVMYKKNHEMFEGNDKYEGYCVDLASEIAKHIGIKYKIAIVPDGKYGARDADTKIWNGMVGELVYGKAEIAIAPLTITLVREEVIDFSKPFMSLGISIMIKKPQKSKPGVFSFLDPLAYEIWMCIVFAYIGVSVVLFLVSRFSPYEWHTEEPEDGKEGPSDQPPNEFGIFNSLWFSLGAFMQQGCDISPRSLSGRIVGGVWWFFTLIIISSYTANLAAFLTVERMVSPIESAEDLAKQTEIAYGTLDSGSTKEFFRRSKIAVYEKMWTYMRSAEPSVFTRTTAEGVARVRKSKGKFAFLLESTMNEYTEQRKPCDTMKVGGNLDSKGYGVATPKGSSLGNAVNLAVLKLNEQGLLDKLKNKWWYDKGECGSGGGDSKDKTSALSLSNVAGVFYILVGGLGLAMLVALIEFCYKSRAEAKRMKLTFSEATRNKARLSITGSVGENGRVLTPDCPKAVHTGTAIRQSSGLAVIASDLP
- runDescription: Displacement of [3H]AMPA from recombinant rat GluA4 receptor flop isoform expressed in sf9 insect cells
pKi: −log10 of the molar value.
reportedEndpoint: pKi

- chemicalStructure: "N[C@@H](Cc1c(O)noc1-c1nnn(Cc2ccncc2)n1)C(=O)O"
  observedResult: 4.25
- chemicalStructure: "NCc1cccc(Cn2nnc(-c3onc(O)c3C[C@H](N)C(=O)O)n2)c1"
  observedResult: 5.56

====

- targetOfAssay: Glutamate receptor 2 (Rattus norvegicus, UniProt P19491)
- runDescription: Displacement of [3H]AMPA from recombinant rat GluA2 receptor flop isoform expressed in sf9 insect cells

- chemicalStructure: "N[C@@H](Cc1c(O)noc1-c1nnn(Cc2ccncc2)n1)C(=O)O"
  readoutUnit: "µM"
  reportedRelation: ">"
  Ki: 100
- chemicalStructure: "CCNCc1cccc(Cn2nnc(-c3onc(O)c3C[C@H](N)C(=O)O)n2)c1"
  readoutUnit: "µM"
  reportedRelation: "="
  Ki: 84.5
- chemicalStructure: "CC(C)NCc1cccc(Cn2nnc(-c3onc(O)c3C[C@H](N)C(=O)O)n2)c1"
  readoutUnit: "µM"
  reportedRelation: "="
  Ki: 55
- chemicalStructure: "NCc1cccc(Cn2nnc(-c3onc(O)c3C[C@H](N)C(=O)O)n2)c1"
  readoutUnit: "µM"
  reportedRelation: "="
  Ki: 8.15
- chemicalStructure: "CNCc1cccc(Cn2nnc(-c3onc(O)c3C[C@H](N)C(=O)O)n2)c1"
  readoutUnit: "µM"
  reportedRelation: "="
  Ki: 84.4
